Please find below IC50 measurements for IRAK4 (Homo sapiens (Human)), combined from several publications.
measured_attribute: IC50 (nM)

- chem_smiles: "CC(C)Nc1cc(Nc2ccc3ncsc3c2)ncc1C(=O)NC12CCC(C(=O)NCC(C)(C)O)(CC1)CC2"
  IC50 (nM): 3.4

I. CC1(Nc2c(C(=O)NCCN3CCS(=O)(=O)CC3)cnc3ccc(-c4cn[nH]c4)cc23)CC1
II. CC(C)(C)OC(=O)N1CCC(n2cc(NC(=O)c3cnn4cccnc34)c(C(N)=O)n2)CC1
III. CC(C)Nc1cc(-c2cnc3cc(Cl)cnn23)ncc1-c1cnn(CC(F)(F)F)c1
Please put the entries in order of rising IC50. List each label, following the requested order. I, III, II

====

Please find below IC50 measurements for UniProtKB Q9NWZ3, combined from several publications.
measured_attribute: IC50 (nM)

- chem_smiles: "COc1ccc(C(=O)N2CCC3(CC2)CC(CCN2CCC(n4cc5cc(NC(=O)c6cccc(C(F)(F)F)n6)c(C(C)(C)O)cc5n4)CC2)C3)cc1N1CCC(=O)NC1=O"
  units_of_measure: "nM"
  value_observed: 6.5

a. COc1cc(Nc2nc(C)c(-c3nc4ccccc4s3)c(N[C@@H]3C[C@H](CO)[C@@H](O)[C@H]3O)n2)ccn1
b. CC(=O)N1CCC[C@@H]1c1cc(-c2cnc(-n3ncc4cc(C#N)cnc43)cc2NC(C)C)on1
c. CCNC(=O)[C@H]1CC[C@H](NC(=O)c2cnc(Nc3ccc4ncsc4c3)cc2NC(C)C)CC1
d. COc1cc2nn([C@H]3C[C@@H](C(=O)OC)C3)cc2cc1NC(=O)c1cccc(C(F)(F)F)n1
Put the items in sequence by IC50, from largest down. List each label, following the requested order. a, d, b, c

====

Please find below IC50 measurements for IRAK4 (Homo sapiens (Human), UniProt Q9NWZ3), combined from several publications.
measured_attribute: IC50 (nM)

- molecule: "CCNc1cc(-c2cnc3cc(Cl)cnn23)ncc1C(=O)NC[C@@H](F)C(C)(C)O"
  target_or_system: "IRAK4 (Homo sapiens (Human), UniProt Q9NWZ3)"
  measured_attribute: "IC50"
  units_of_measure: "nM"
  value_observed: 4
- molecule: "CC(C)(O)[C@H](F)CNC(=O)c1cnc(Nc2ccc3ncc(C#N)cc3n2)cc1NC1CCC(F)(F)C1 (stereo partly shown)"
  target_or_system: "IRAK4 (Homo sapiens (Human), UniProt Q9NWZ3)"
  measured_attribute: "IC50"
  units_of_measure: "nM"
  value_observed: 2.7

a. Nc1cccc(-c2ccc3ncnc(N[C@H]4CC[C@H](N5CCOCC5)CC4)c3c2)c1
b. Cn1cnc2cc(-c3ccc4ncnc(N[C@H]5CC[C@H](N(C)C)CC5)c4c3)cnc21
// pick min by IC50: a , b Pick one and reply with its label. a

====

Please find below IC50 measurements for IRAK4 (Homo sapiens (Human), UniProt Q9NWZ3), combined from several publications.
measured_attribute: IC50 (nM)

- molecule: "c1nc(N[C@H]2CC[C@H](N3CCOCC3)CC2)c2cc(C3CCOC3)ccc2n1 (some centres unmarked)"
  measured_attribute: "IC50"
  units_of_measure: "nM"
  value_observed: 18

A. CC(C)(O)[C@H](F)CNC(=O)c1cnc(Nc2ccc3ncsc3c2)cc1Nc1cccc(CCO)c1
B. Cn1cc(-c2ccc3[nH]c4ncnc(N[C@H]5CC[C@H](N(C)C)CC5)c4c3c2)cn1
C. CC(C)Nc1cc(-n2ncc3cc(C#N)cnc32)ncc1-c1cn(C[C@H](N)Cc2ccccc2)nn1
Please put the entries in order of rising IC50. List each label, following the requested order. A, B, C
(A: 6 nM, B: 10 nM, C: 17 nM)

====

Please find below IC50 measurements for IRAK4 (Homo sapiens (Human)), combined from several publications.
measured_attribute: IC50 (nM)

A. CC(C)(O)[C@H]1C[C@@H](Nc2nc(N)ncc2-c2nc3ccccc3s2)[C@H](O)[C@@H]1O
B. CC(C)(O)[C@H](F)CNC(=O)c1cnc(Nc2ccc3ncsc3c2)cc1NC12CCC(NC(=O)c3ccncc3)(CC1)C2
C. COc1cc2nn(C3CC(OC)C3)cc2cc1NC(=O)c1cccc(C(F)(F)F)n1 (stereo not drawn)
D. CC(C)Nc1c(C(=O)N[C@H](C)CCO)cnc2sc(-c3cncs3)cc12
Order the 4 listed items from lowest to highest according to IC50. List each label, following the requested order. B, C, A, D
(B: 3.1 nM, C: 6.3 nM, A: 23 nM, D: 126 nM)

====

pIC50: −log10 of the molar value.
Please find below pIC50 measurements for IRAK4 (Homo sapiens (Human), UniProt Q9NWZ3), combined from several publications.
measured_attribute: pIC50

Worked examples, 2 molecules total:
- chem_smiles: "NC(=O)[C@@H]1[C@H](Nc2nc(Nc3cccc(C(=O)N4CCCC4)c3)ncc2-c2ccncc2)[C@H]2C=C[C@@H]1C2"
  pIC50: 8.40
- chem_smiles: "CC(C)(O)[C@H](F)CNC(=O)c1cnc(Nc2ccc3ncsc3c2)cc1Nc1ccc(OC(F)F)cc1"
  pIC50: 8.43

I. CC(C)Nc1cc(-n2cnc3cc(C#N)cnc32)ncc1-c1cn(CCC(F)(F)F)nn1
II. CC(C)(F)Cn1cc(Nc2cc(-c3cnn4cc(C#N)cnc34)ncc2C(=O)NC[C@@H](F)C(C)(C)O)cn1
III. CC(C)(O)[C@H]1C[C@@H](Nc2cc(NC3CCC3)ncc2-c2nc3ccccc3s2)[C@H](O)[C@@H]1O
IV. CC(C)Nc1cc(-n2ncc3cc(C#N)cnc32)ncc1-n1cc(C2CC2)nn1
Put the items in sequence by pIC50, from largest down. List each label, following the requested order. II, I, IV, III
(II: 8.70, I: 8.30, IV: 7.66, III: 6.05)

====

pIC50: −log10 of the molar value.
Please find below pIC50 measurements for IRAK4 (Homo sapiens (Human), UniProt Q9NWZ3), combined from several publications.
measured_attribute: pIC50

Worked examples, 4 compounds total:
- chem_smiles: "c1cc(-c2ccc3[nH]c4ncnc(Nc5ccc(N6CCNCC6)cc5)c4c3c2)ccn1"
  pIC50: 5.93
- chem_smiles: "N#Cc1cccc(-c2ccc3[nH]c4ncnc(N[C@H]5CC[C@H](N6CCOCC6)CC5)c4c3c2)c1"
  pIC50: 6.98
- chem_smiles: "COc1cc2nn([C@H]3C[C@H](CO)C3)cc2cc1NC(=O)c1cccc(C(F)(F)F)n1"
  pIC50: 8.30
- chem_smiles: "CC(C)Nc1cc(-n2ncc3cc(C#N)cnc32)ncc1-c1cn(C2COC2)nn1"
  pIC50: 8.15

P. C=CC(=O)N1CCC[C@H](C(=O)Nc2ccc(-c3ncc(-c4cccc(-c5ccn[nH]5)n4)o3)nc2)C1
Q. CC(C)Nc1c(C(=O)N[C@H]2CC[C@H](O)CC2)cnc2sc(-c3cncs3)cc12
P or Q : whose pIC50 is greater? Pick one and reply with its label. Q

1. CC(C)Nc1cc(-c2cnn3cc(C#N)cnc23)ncc1C(=O)NC[C@@H](F)C(C)(C)O
2. C=CC(=O)N1CCC[C@H](c2nc(-c3ccc(NC(=O)c4cccc(-c5ccn[nH]5)n4)c(C(F)(F)F)c3)no2)C1
3. O=C(Nc1cc2cn([C@H]3CC[C@@H](O)CC3)nc2cc1OCC1CC1)c1cccc(C(F)(F)F)n1
4. CN(C)c1cccc(Nc2ncc(-c3nc4ccccc4s3)c(N[C@@H]3C[C@H](CO)[C@@H](O)[C@H]3O)n2)c1
Put the items in sequence by pIC50, from largest down. List each label, following the requested order. 1, 3, 4, 2
(1: 8.70, 3: 8.29, 4: 8.05, 2: 5.44)

1. CC(C)Nc1cc(Nc2ccc3ncsc3c2)ncc1-c1nc(C(=O)NCCCN2CCCC2)cs1
2. CC(C)Nc1c(C(=O)NCc2nccs2)cnc2c1Oc1cc(C#N)ccc1O2
3. Cc1ccc(-c2ccc3ncnc(N[C@H]4CC[C@H](N(C)C)CC4)c3c2)cn1
4. CC1(O)CCN(c2cc3nc(CCC(=O)O)cn3cc2NC(=O)c2cccc(C(F)(F)F)n2)CC1
Please put the entries in order of rising pIC50. List each label, following the requested order. 2, 3, 4, 1

====

Please find below IC50 measurements for IRAK4 (Homo sapiens (Human), UniProt Q9NWZ3), combined from several publications.
measured_attribute: IC50 (nM)

- molecule: "COC(=O)N1CC[C@@H](n2cc(-c3cnc(-n4ncc5cc(C#N)cnc54)cc3NC(C)C)nn2)[C@H](O)C1 (single isomer, unassigned)"
  IC50, nM: 4

P. CC(C)Nc1cc(Nc2ncc(Cl)cc2Cl)ncc1C(=O)NC[C@@H](F)C(C)(C)O
Q. Cc1nsc2nc(Nc3cnn(CCO)c3)nc(N[C@H]3CC[C@H](N4CCOCC4)CC3)c12
P or Q : whose IC50 is greater? Pick one and reply with its label. Q
